biological target: panel of more than 300 wild-type and mutant kinases (313 kinase panel) (Homo sapiens, UniProt Q13464); assay: Kinase profiling in a biochemical assay panel (mobility shift assays and ELISA), %-inhibition at 1 μM; selectivity entropy; settings: kinase ROCK1; 1 μM
%-inhibition of ROCK1 by entry:
// return numeric value only (unit: %, not printed)

Note %-inhibition of ROCK1 for the molecule shown: COc1cc(Nc2c(C#N)cnc3cc(OCCCN4CCN(C)CC4)c(OC)cc23)c(Cl)cc1Cl [bosutinib] 1.43

Fill in %-inhibition of ROCK1 for record CO[C@H]1C[C@@H]2CC[C@@H](C)[C@@](O)(O2)C(=O)C(=O)N2CCCC[C@H]2C(=O)O[C@H]([C@H](C)C[C@@H]2CC[C@@H](OC(=O)C(C)(CO)CO)[C@H](OC)C2)CC(=O)[C@H](C)/C=C(\C)[C@@H](O)[C@@H](OC)C(=O)[C@H](C)C[C@H](C)/C=C/C=C/C=C/1C [temsirolimus] -0.679

In one line, give reported %-inhibition of ROCK1 of the entry CCCS(=O)(=O)Nc1ccc(F)c(C(=O)c2c[nH]c3ncc(-c4ccc(Cl)cc4)cc23)c1F [vemurafenib] . 1.28

Output measured %-inhibition of ROCK1 for this item: Cc1ccc(C(=O)Nc2ccc(CN3CCN(C)CC3)c(C(F)(F)F)c2)cc1C#Cc1cnc2cccnn12 [ponatinib] 39

Report %-inhibition of ROCK1 for CS(=O)(=O)CCNCc1ccc(-c2ccc3ncnc(Nc4ccc(OCc5cccc(F)c5)c(Cl)c4)c3c2)o1 [lapatinib] -2.62

Tell us which %-inhibition of ROCK1 value is on record for O=S(=O)(c1cccc2cnccc12)N1CCCNCC1 [fasudil] 83
